# experiment notes: Displacement of […] from porcine cerebral cortex 5-HT1A receptor
# Design: species or system Sus scrofa
observation type: pKi
// pKi here means minus log10 of the molar concentration (mol/L)

Incoming: Reported pKi for CC(C)(C)c1nc(N2CCN(CCCCNC(=O)c3cc4ccccn4n3)CC2)cc(C(F)(F)F)n1 : what is it?
Outgoing: 5.01

Incoming: Reported pKi for O=C(NCCCCN1CC[N+]2(CCOc3ccccc32)CC1)c1cc2ccccn2n1 : what is it?
Outgoing: 6.05

Incoming: Reported pKi for O=C(NCCCCN1CCN(c2ccccc2OCCF)CC1)c1cc2ccccn2n1 : what is it?
Outgoing: 8.19

Incoming: Reported pKi for COc1ccccc1N1CCN(CCCCNC(=O)c2cc3ccccn3n2)CC1 : what is it?
Outgoing: 8.00

* * *

# target or test system: D(1A) dopamine receptor (Homo sapiens, UniProt P21728)
# Sequence (P21728 whole entry): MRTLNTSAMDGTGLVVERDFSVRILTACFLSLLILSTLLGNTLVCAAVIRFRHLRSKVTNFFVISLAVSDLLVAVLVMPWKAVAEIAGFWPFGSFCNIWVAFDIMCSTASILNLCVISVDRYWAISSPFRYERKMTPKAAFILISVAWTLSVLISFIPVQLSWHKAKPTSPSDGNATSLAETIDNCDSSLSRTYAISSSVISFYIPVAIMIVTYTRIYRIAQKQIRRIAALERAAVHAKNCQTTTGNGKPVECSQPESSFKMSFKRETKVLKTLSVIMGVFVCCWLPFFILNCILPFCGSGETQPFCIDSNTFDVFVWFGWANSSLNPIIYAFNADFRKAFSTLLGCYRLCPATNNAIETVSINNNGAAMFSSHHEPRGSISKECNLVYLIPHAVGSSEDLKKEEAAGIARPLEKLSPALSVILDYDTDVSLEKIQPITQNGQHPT
# experiment notes: Displacement of […] from human D1 receptor expressed in HEK293T cell membranes
observation type: Ki (µM)
Could you give me the number in µM? Just the number is fine.

Incoming: Reported Ki for CC(C)(C)c1nc(N2CCN(CCCCNC(=O)c3cc4ccccn4n3)CC2)cc(C(F)(F)F)n1 : what is it?
Outgoing: 7.5

Incoming: Reported Ki for O=C(NCCCCN1CC[N+]2(CCOc3ccccc32)CC1)c1cc2ccccn2n1 : what is it?
Outgoing: 5.7

Incoming: Reported Ki for O=C(NCCCCN1CCN(c2ccccc2OCCF)CC1)c1cc2ccccn2n1 : what is it?
Outgoing: 0.86

* * *

Would you kindly list Ki for each of these molecules?
Could you give me the number in µM? Just the number is fine.

Incoming: Query for D(1B) dopamine receptor (Homo sapiens, UniProt P21918): what Ki does the record show for CN(C)C(=O)N[C@H]1CC[C@H](CCN2CCN(c3cccc(Cl)c3Cl)CC2)CC1 [CARIPRAZINE] ?
Outgoing: 7.9

Incoming: Query for D(1B) dopamine receptor (Homo sapiens, UniProt P21918): what Ki does the record show for O=C(NCCCCN1CCN(c2ccccc2OCCF)CC1)c1cc2ccccn2n1 ?
Outgoing: 3.8

Incoming: Query for D(1B) dopamine receptor (Homo sapiens, UniProt P21918): what Ki does the record show for CC(C)(C)c1nc(N2CCN(CCCCNC(=O)c3cc4ccccn4n3)CC2)cc(C(F)(F)F)n1 ?
Outgoing: 5.7

* * *

# target or test system: D(4) dopamine receptor (Homo sapiens, UniProt P21917)
# Sequence (P21917 whole entry): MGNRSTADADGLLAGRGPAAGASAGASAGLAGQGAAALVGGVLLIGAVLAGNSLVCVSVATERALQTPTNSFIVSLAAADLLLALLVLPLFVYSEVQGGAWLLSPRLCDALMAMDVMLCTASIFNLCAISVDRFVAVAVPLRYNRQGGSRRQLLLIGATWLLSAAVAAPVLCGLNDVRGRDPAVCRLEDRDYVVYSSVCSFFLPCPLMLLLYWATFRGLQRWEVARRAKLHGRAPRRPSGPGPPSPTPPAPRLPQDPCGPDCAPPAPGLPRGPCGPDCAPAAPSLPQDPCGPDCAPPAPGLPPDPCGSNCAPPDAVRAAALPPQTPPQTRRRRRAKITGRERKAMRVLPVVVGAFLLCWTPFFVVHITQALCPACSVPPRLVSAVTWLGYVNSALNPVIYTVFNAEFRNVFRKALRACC
observation type: Ki (µM)
Could you give me the number in µM? Just the number is fine.

Incoming: Reported Ki for O=C(NCCCCN1CCN(c2ccccc2OCCF)CC1)c1cc2ccccn2n1 : what is it?
Outgoing: 0.16

Incoming: Reported Ki for CC(C)(C)c1nc(N2CCN(CCCCNC(=O)c3cc4ccccn4n3)CC2)cc(C(F)(F)F)n1 : what is it?
Outgoing: 4.7
